The values you see were collected from patent US20250179103A1.

Target: Recombinant STAT3 protein (STAT3(G127-I722)) (Homo sapiens)
Construct: Recombinant STAT3 protein (STAT3(G127-I722))
Assay: STAT3 Fluorescence Polarization (FP) Assay
Details: STAT3(G127-I722) 25 nM, probe 5-FAM-GpYLPQTV-NH2 2 nM, 45-minute incubation
assayReadout: IC50

{"columns": ["molecule", "result"],
 "data": [
  ["CC(=O)N1CC[C@H]2CC[C@@H](C(=O)Nc3ccc(OCCCN(C)C)cc3)N2C(=O)[C@@H](NC(=O)c2cc3cc(C(F)(F)P(=O)(O)O)ccc3s2)C1", "1 to 10 µM"],
  ["CC(=O)N1CC[C@H]2CC[C@@H](C(=O)Nc3ccc(-c4ccccc4)cc3)N2C(=O)[C@@H](NC(=O)c2cc3cc(C(F)(F)P(=O)(O)O)ccc3[nH]2)C1", "0.1 to 1 µM"],
  ["COC1CCN(C2CCN(C(=O)[C@@H]3CC[C@@H]4CCN(C(C)=O)C[C@H](NC(=O)c5cc6cc(C(F)(F)P(=O)(O)O)ccc6s5)C(=O)N43)C2)CC1 (stereo partly shown)", "1 to 10 µM"],
  ["CC(=O)N1CC[C@H]2CC[C@@H](C(=O)N(C)c3ccc(C4(C)COC4)cc3)N2C(=O)[C@@H](NC(=O)c2cc3cc(C(F)(F)P(=O)(O)O)ccc3s2)C1", "1 to 10 µM"],
  ["CC(=O)N1CC(NC(=O)[C@@H]2CC[C@@H]3CCN(C(C)=O)C[C@H](NC(=O)c4cc5cc(C(F)(F)P(=O)(O)O)ccc5[nH]4)C(=O)N32)C1", "0.1 to 1 µM"],
  ["CC(=O)N1CC[C@H]2CC[C@@H](C(=O)Nc3ccc(-n4ccccc4=O)cc3)N2C(=O)[C@@H](NC(=O)c2cc3cc(C(F)(F)P(=O)(O)O)ccc3[nH]2)C1", "1 to 10 µM"],
  ["CC(=O)N1CC[C@H]2CC[C@@H](C(=O)N(C)c3cccc(C(F)F)c3)N2C(=O)[C@@H](NC(=O)c2cc3cc(C(F)(F)P(=O)(O)O)ccc3s2)C1", "1 to 10 µM"],
  ["CC(=O)N1CC[C@H]2CC[C@@H](C(=O)Nc3ccc(-c4ccccc4)cc3CC(N)=O)N2C(=O)[C@@H](NC(=O)c2cc3cc(C(F)(F)P(=O)(O)O)ccc3s2)C1", "≤ 0.1 µM"],
  ["CCN1CC[C@H]2CC[C@@H](C(=O)N3C[C@@H](C#N)[C@H](c4cc[nH]c(=O)c4)C3)N2C(=O)[C@@H](NC(=O)c2ccc3ccc(C(F)(F)P(=O)(O)O)cc3c2)C1 (relative stereo) [Compound 240]", "1 to 10 µM"],
  ["Cc1ccc2[nH]nc(C(=O)N3CC[C@H]4CC[C@@H](C(=O)N(C)C5CC5)N4C(=O)[C@@H](NC(=O)c4ccc5ccc(C(F)(F)P(=O)(O)O)cc5c4)C3)c2c1", "1 to 10 µM"]
]}

###

# pIC50 annotations
Molecular target: Recombinant STAT6 protein (STAT6(W123-T658)) (Homo sapiens)
Construct: Recombinant STAT6 protein (STAT6(W123-T658))
Sequence (P42226 123-658): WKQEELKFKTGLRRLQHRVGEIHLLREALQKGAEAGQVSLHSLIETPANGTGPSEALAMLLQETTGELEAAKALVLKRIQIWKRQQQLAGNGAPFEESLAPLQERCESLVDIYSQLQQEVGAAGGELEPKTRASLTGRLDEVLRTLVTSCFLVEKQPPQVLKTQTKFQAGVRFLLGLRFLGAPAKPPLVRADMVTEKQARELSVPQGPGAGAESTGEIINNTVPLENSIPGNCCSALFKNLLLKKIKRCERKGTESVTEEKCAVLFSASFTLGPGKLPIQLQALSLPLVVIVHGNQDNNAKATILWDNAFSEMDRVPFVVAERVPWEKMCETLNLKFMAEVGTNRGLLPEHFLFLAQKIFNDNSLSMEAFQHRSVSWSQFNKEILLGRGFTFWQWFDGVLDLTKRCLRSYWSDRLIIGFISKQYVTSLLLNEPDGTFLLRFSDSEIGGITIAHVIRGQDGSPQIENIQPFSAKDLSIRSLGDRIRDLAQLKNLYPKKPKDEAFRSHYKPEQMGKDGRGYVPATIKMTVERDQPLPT
Experiment: STAT6 Fluorescence Polarization (FP) Assay
Conditions: STAT6(W123-T658) 250 nM, probe 5-FAM-ApYKPFQDLI-NH2 2 nM, 45-minute incubation
pIC50: −log10 of the molar value.

{"columns": ["compound", "targetUnderTest", "pIC50"],
 "data": [
  ["CC(=O)N1CC[C@H]2CC[C@@H](C(=O)N3CC(C#N)(c4ccccn4)C3)N2C(=O)[C@@H](NC(=O)c2cc3cc(C(F)(F)P(=O)(O)O)ccc3s2)C1", "Recombinant STAT6 protein (STAT6(W123-T658)) (Homo sapiens)", "5.52 to 6.52"],
  ["CC(=O)N1CC[C@H]2CC[C@@H](C(=O)N3CCC3Cc3ccccc3)N2C(=O)[C@@H](NC(=O)c2cc3cc(C(F)(F)P(=O)(O)O)ccc3[nH]2)C1 (some centres unmarked)", "Recombinant STAT6 protein (STAT6(W123-T658)) (Homo sapiens)", "5.52 to 6.52"],
  ["O=C(N[C@H]1CN(C(=O)OCc2ccccc2)CC[C@H]2CC[C@@H](C(=O)Nc3ccc(-c4ccccc4)cc3)N2C1=O)c1cc2cc(C(F)(F)P(=O)(O)O)ccc2s1", "Recombinant STAT6 protein (STAT6(W123-T658)) (Homo sapiens)", "5.52 to 6.52"],
  ["Cc1ccc2onc(C(=O)N3CC[C@H]4CC[C@@H](C(=O)N5CCOCC5)N4C(=O)[C@@H](NC(=O)c4ccc5ncc(C(F)P(=O)(O)O)cc5c4)C3)c2c1 (some centres unmarked)", "Recombinant STAT6 protein (STAT6(W123-T658)) (Homo sapiens)", "5.52 to 6.52"],
  ["Cc1ccc2onc(C(=O)N3CC[C@H]4CC[C@@H](C(=O)N5CCOC(Cc6ccccc6)C5)N4C(=O)[C@@H](NC(=O)c4ccc5ccc(C(F)P(=O)(O)O)cc5c4)C3)c2c1 (some centres unmarked)", "Recombinant STAT6 protein (STAT6(W123-T658)) (Homo sapiens)", "≥ 6.52"]
]}

###

Biological target: Recombinant STAT3 protein (STAT3(G127-I722)) (Homo sapiens, UniProt P40763)
Construct: Recombinant STAT3 protein (STAT3(G127-I722))
Sequence (P40763 127-722): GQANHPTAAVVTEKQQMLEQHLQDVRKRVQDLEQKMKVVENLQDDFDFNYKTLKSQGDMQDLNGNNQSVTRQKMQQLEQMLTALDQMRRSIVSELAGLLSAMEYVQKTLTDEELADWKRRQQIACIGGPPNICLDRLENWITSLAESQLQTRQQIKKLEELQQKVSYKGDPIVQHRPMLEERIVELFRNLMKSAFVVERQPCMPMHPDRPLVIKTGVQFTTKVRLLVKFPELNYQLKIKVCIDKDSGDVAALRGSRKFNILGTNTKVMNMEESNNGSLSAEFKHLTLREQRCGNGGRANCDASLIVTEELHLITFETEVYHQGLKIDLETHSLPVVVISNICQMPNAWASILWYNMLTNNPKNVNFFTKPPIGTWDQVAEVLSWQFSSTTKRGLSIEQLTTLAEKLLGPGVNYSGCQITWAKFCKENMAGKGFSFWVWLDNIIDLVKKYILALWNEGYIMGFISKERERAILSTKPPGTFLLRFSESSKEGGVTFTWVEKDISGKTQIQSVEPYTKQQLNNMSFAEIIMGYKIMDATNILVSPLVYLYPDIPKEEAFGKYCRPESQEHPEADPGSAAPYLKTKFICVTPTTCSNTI
Test: STAT3 Fluorescence Polarization (FP) Assay
Settings: STAT3(G127-I722) 25 nM, probe 5-FAM-GpYLPQTV-NH2 2 nM, 45-minute incubation
pIC50: −log10 of the molar value.

{"columns": ["molecule", "pIC50"],
 "data": [
  ["CC(=O)N1CC[C@H]2CC[C@@H](C(=O)Nc3ccc(-c4ccccc4)cc3Cc3nccs3)N2C(=O)[C@@H](NC(=O)c2cc3cc(C(F)(F)P(=O)(O)O)ccc3s2)C1 [Compound 196]", "6.00 to 7.00"],
  ["CC(=O)N1CC[C@H]2CC[C@@H](C(=O)N(C)c3ccc(C(C)(C)C)c(Cl)c3)N2C(=O)[C@@H](NC(=O)c2cc3cc(C(F)(F)P(=O)(O)O)ccc3s2)C1 [Compound 160]", "5.00 to 6.00"],
  ["Cc1ccc2onc(C(=O)N3CC[C@H]4CC[C@@H](C(=O)N5CCOCC5)N4C(=O)[C@@H](NC(=O)c4ccc5cnc(CP(=O)(O)O)cc5c4)C3)c2c1 [Compound 394]", "< 5.00"],
  ["CC(=O)N1CC[C@H]2CC[C@@H](C(=O)Nc3ccc(S(C)(=O)=O)cc3)N2C(=O)[C@@H](NC(=O)c2cc3cc(C(F)(F)P(=O)(O)O)ccc3s2)C1 [Compound 70]", "5.00 to 6.00"],
  ["CC(=O)N1CC[C@H]2CC[C@@H](C(=O)N(C)c3ccc(-c4ccccc4)cc3)N2C(=O)[C@@H](NC(=O)c2cc3cc(C(F)(F)P(=O)(O)O)ccc3s2)C1 [Compound 96]", "5.00 to 6.00"]
]}

###

Molecular target: Recombinant STAT3 protein (STAT3(G127-I722)) (Homo sapiens, UniProt P40763)
Construct: Recombinant STAT3 protein (STAT3(G127-I722))
Experiment: STAT3 Fluorescence Polarization (FP) Assay
Conditions: STAT3(G127-I722) 25 nM, probe 5-FAM-GpYLPQTV-NH2 2 nM, 45-minute incubation
# IC50 annotations

{"columns": ["molecule", "IC50"],
 "data": [
  ["CC(=O)N1CC[C@H]2CC[C@@H](C(=O)Nc3ccc4[nH]ncc4c3)N2C(=O)[C@@H](NC(=O)c2cc3cc(C(F)(F)P(=O)(O)O)ccc3s2)C1", "0.1 to 1 µM"],
  ["Cc1ccc2onc(C(=O)N3CC[C@H]4CC[C@@H](C(=O)N5C[C@@H]6C[C@H]5CO6)N4C(=O)[C@@H](NC(=O)c4ccc5ccc(C(F)P(=O)(O)O)cc5c4)C3)c2c1 (some centres unmarked)", "> 10 µM"],
  ["CC(=O)N1CC[C@H]2CC[C@@H](C(=O)N(C)c3ccc(C(C)(C)CO)cc3)N2C(=O)[C@@H](NC(=O)c2cc3cc(C(F)(F)P(=O)(O)O)ccc3s2)C1", "1 to 10 µM"],
  ["Cc1ccc2onc(C(=O)N3CC[C@H]4CC[C@@H](C(=O)N5CCN(S(C)(=O)=O)CC5)N4C(=O)[C@@H](NC(=O)c4ccc5ccc(C(F)P(=O)(O)O)cc5c4)C3)c2c1 (some centres unmarked)", "> 10 µM"],
  ["CC(=O)N1CC[C@H]2CC[C@@H](C(=O)N3C[C@@H](C#N)C[C@@H]3Cc3ccccc3)N2C(=O)[C@@H](NC(=O)c2cc3cc(C(F)(F)P(=O)(O)O)ccc3s2)C1", "1 to 10 µM"]
]}
